Listing of entries alongside the reported TGI.
# Tested on: OVCAR-8 ovarian
# protocol-details: NCI tumour cell line growth inhibition, 48 h
property: TGI

{"compound": "CC(C)c1cc2c(O)c(c1)Cc1cc(C(C)C)cc(c1O)Cc1cc(C(C)C)cc(c1O)Cc1cc(C(C)C)cc(c1O)C2", "property": "TGI", "experimental-value": "> 100 µM"}
{"compound": "CCc1oc2ccccc2c1C(=O)c1cc(I)c(O)c(I)c1", "property": "TGI", "experimental-value": "28.5 µM"}
{"compound": "C/C=C1/C(=C/c2[nH]c(/C=c3\\[nH]/c(=C/C4=NC(=O)C(CC)=C4C)c(C)c3CCC(=O)O)c(CCC(=O)O)c2C)NC(=O)C1C (centres undefined)", "property": "TGI", "experimental-value": "> 150 µg/mL"}
{"compound": "CCCCOC(=O)NC(=O)c1cn(C2CCCCC2)c(=O)[nH]c1=O", "property": "TGI", "experimental-value": "> 100 µM"}
